Provenance of the data: the Human Domainome abundance scans (Beltran et al. 2025)

B1: Formin-binding protein 4, residues 593 to 636; numbered along this chain, Q8N3X1 (parent)
chain: EINATPKGWSCHWDRDHRRYFYVNEQSGESQWEFPDGEEEEEES

Variants of: B1
experiment-summary: abundance fitness (aPCA) (normalised: wild type 0, dead -1); higher = more abundant; growth selection in yeast, the domain comes from the species named
details: Homo sapiens
# binarize abundance fitness: threshold -0.2 inclusive, high side Satisfied, low side Not satisfied

| sequence-change | answer-label |
| --- | --- |
| D36F | Not satisfied |
| S27F | Not satisfied |
| E25K | Satisfied |

Hello, I need to know if D14E has measured abundance fitness not below -0.2. Thanks!
Not satisfied

Hello, I need to know if E29V has measured abundance fitness not below -0.2. Thanks!
Satisfied
